Tested on: KB cells
Experiment: Perfusion ratio imaging of LAT1-mediated tryptophan uptake and exchange in KB cells expressing FLIPW-CTYT
Format: cell-based, human
Conditions: 100 μM L-His, 200 μM DL-K, 200 μM DL-HK, 1,000 μM HAA
ATTRIBUTE MEASURED: Export of intracellular tryptophan upon perfusion (FRET ratio decrease)

>  <MOLECULE>
Nc1ccccc1C(=O)CC(N)C(=O)O (stereo not shown) [K, kynurenine]

>  <READOUT VALUE>
exported

$$$$
>  <MOLECULE>
Nc1c(O)cccc1C(=O)CC(N)C(=O)O (stereo not shown) [HK, 3-hydroxy-kynurenine]

>  <READOUT VALUE>
exported

$$$$
>  <MOLECULE>
Nc1c(O)cccc1C(=O)O [HAA, hydroxy-anthranilic acid]

>  <READOUT VALUE>
not

$$$$

###

Molecular target: FLIPW-TCTY (Escherichia coli)
Assay: FRET ratio (528/485 nm, eCFP excitation 433 nm) titration of purified sensor with L-tryptophan in 20 mM MOPS, pH 7.0, fitted to a single-site binding isotherm.
Settings: n = 3
Experimental: The eCFP emission used for the ratio calculation was determined at 485 nm. Protein was diluted to give Venus readouts of 20,000–30,000 at a manual gain of between 70–75. […] Three independent protein preparations were analyzed and each protein preparation was analyzed in triplicate.
ATTRIBUTE MEASURED: Kd (µM)
Answers are plain numbers, in µM.

Ask | Please look at N[C@@H](Cc1c[nH]c2ccccc12)C(=O)O and tell me its recorded Kd on FLIPW-TCTY (Escherichia coli).
Reply | 20
